Biological target: human P450 1B1 (Homo sapiens)
Sequence (Q16678 whole entry): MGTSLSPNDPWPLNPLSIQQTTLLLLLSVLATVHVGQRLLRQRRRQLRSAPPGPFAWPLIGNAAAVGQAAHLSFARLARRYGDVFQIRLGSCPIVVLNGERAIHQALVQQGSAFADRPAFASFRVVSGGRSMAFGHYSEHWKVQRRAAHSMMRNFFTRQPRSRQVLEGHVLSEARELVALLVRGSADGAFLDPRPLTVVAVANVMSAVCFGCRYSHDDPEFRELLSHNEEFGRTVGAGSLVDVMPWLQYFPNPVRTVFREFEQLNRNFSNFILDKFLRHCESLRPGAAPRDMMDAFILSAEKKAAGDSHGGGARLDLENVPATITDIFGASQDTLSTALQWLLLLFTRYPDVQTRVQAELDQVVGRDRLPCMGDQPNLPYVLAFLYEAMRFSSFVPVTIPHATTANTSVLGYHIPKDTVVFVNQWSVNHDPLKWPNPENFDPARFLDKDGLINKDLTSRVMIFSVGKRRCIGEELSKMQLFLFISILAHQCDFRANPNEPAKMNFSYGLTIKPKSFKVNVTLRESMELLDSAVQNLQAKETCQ
Assay: Spectral binding titration
Settings: purified P450 1B1 1.0 μM; means ± SEs; ND = not detected at 100 μM
Collected Reverse Type I spectra ΔAmax values appear next to each entry.
Measure name: Reverse Type I spectra ΔAmax

compound=C#CCOCc1ccc(-c2ccccc2)cc1 reported_result=0.071
compound="C[C@]12CC[C@@H]3c4ccc(O)cc4CC[C@H]3[C@@H]1CC[C@@H]2O [E2, 17β-estradiol, reference compound]" reported_result=0.039
compound=C#Cc1cc2ccc3cccc4ccc(c1)c2c34 reported_result=0.071
compound=C#Cc1ccc2ccc3ccccc3c2c1 reported_result=0.071
compound=C#Cc1cc2ccccc2c2ccccc12 reported_result=0.071
